biological target: Cytochrome P450 2D6 (Homo sapiens, UniProt P10635)
Sequence (P10635 whole entry): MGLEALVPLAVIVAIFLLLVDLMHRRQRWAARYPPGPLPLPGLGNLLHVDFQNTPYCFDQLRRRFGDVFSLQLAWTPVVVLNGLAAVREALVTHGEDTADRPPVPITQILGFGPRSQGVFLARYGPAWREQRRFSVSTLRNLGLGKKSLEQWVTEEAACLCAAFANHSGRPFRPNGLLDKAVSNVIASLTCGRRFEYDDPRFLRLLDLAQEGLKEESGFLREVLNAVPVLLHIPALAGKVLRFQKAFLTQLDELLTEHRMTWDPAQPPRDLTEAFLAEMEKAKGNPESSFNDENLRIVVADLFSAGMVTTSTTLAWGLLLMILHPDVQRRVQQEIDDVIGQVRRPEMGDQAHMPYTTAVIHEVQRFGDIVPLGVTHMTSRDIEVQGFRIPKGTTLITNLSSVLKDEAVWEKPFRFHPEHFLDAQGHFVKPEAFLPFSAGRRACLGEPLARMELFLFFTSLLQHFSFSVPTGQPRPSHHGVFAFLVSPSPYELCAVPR
pIC50: −log10 of the molar value.
Reported pIC50 values for a set of compounds

# MOL, pIC50
data = [
    ("Cc1ccc(S(=O)(=O)Nc2c(C(=O)N[C@@H](C)C(C)(C)C)c(C)nn2-c2ccccc2)cc1", "< 5.00"),
]

Moving on to another compound below.
Response field pIC50 (Cytochrome P450 2D6 (Homo sapiens, UniProt P10635)) for item Cc1nn(-c2ccc(F)cc2)c(NS(=O)(=O)c2ccc(C#N)cc2)c1C(=O)N[C@@H](C)C(C)(C)C : < 5.00

* * *

test: Chemical stability of the compound assessed as half life; type: physicochemical
QUANTITY_KIND: half-life

# MOL, RESULT_VALUE
data = [
    ("Cc1nn(-c2ccc(F)cc2)c(NS(=O)(=O)c2ccc(C#N)cc2)c1C(=O)N[C@@H](C)C(C)(C)C", "> 41.7 days"),
]

Now consider the entry below.
Record Cc1ccc(S(=O)(=O)Nc2c(C(=O)N[C@@H](C)C(C)(C)C)c(C)nn2-c2ccccc2)cc1 , field half-life: > 41.7 days

* * *

assay: Fraction unbound in human; assay type: ADME, organism-based; details: in vivo
Quick list: fraction unbound per entry.
Please give the numeric answer without any surrounding text.

# MOL, fraction unbound
data = [
    ("Cc1nn(-c2ccc(F)cc2)c(NS(=O)(=O)c2ccc(C#N)cc2)c1C(=O)N[C@@H](C)C(C)(C)C", 0.06),
]

Lab note: Cc1ccc(S(=O)(=O)Nc2c(C(=O)N[C@@H](C)C(C)(C)C)c(C)nn2-c2ccccc2)cc1 gave fraction unbound of 0.011

* * *

biological target: UniProtKB P05177; test: Inhibition of CYP1A2; format: ADME
Sequence (P05177 whole entry): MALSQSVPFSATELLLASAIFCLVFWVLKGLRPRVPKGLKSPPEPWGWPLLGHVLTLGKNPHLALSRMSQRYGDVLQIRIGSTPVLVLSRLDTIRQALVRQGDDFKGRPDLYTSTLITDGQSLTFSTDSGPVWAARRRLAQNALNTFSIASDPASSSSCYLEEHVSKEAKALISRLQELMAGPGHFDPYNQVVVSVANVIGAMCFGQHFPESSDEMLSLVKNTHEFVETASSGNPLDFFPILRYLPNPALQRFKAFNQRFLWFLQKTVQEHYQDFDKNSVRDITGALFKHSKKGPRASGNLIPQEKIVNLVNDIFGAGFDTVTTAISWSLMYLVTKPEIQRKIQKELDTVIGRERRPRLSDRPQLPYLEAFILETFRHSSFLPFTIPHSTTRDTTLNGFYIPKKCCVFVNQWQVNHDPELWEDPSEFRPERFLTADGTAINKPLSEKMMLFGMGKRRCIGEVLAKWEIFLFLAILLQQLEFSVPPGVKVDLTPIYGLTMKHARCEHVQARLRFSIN
pIC50: −log10 of the molar value.
QUANTITY_KIND: pIC50

The recorded pIC50 with UniProtKB P05177 for Cc1ccc(S(=O)(=O)Nc2c(C(=O)N[C@@H](C)C(C)(C)C)c(C)nn2-c2ccccc2)cc1 was < 5.00

* * *

test: Intrinsic clearance in Sprague-Dawley rat hepatocytes assessed per 10 '6 cells; type: ADME, cell-based, Liver, Hepatocyte
Catalogue of compounds with associated hepatocyte CLint
Please state the number and follow it with the unit.

# MOL, QUANTITY_KIND, RESULT_VALUE
measured = [
    ("Cc1ccc(S(=O)(=O)Nc2c(C(=O)N[C@@H](C)C(C)(C)C)c(C)nn2-c2ccccc2)cc1", "hepatocyte CLint", "12 µL/min/1e6 cells"),
]

Next compound, please.
Quick note, hepatocyte CLint for Cc1nn(-c2ccc(F)cc2)c(NS(=O)(=O)c2ccc(C#N)cc2)c1C(=O)N[C@@H](C)C(C)(C)C landed at 4 µL/min/1e6 cells

* * *

experiment: Fraction unbound in rat; format: ADME, organism-based; settings: in vivo
QUANTITY_KIND: fraction unbound
Give a plain numeric answer without units written out.

# MOL, fraction unbound
measured = [
    ("Cc1nn(-c2ccc(F)cc2)c(NS(=O)(=O)c2ccc(C#N)cc2)c1C(=O)N[C@@H](C)C(C)(C)C", 0.1),
]

Sample Cc1ccc(S(=O)(=O)Nc2c(C(=O)N[C@@H](C)C(C)(C)C)c(C)nn2-c2ccccc2)cc1 ; fraction unbound observed: 0.042
